Field: pIC50. Provide a value for each of the compounds that follow.
biological target: IgE-Tb / FcεRIα-Y131A-AF488 (Homo sapiens); assay: IgE-Tb / FcεRIα-Y131A-AF488 FRET assay (protocol for examples 1 to 233); conditions: examples 1 to 233: 5 nM IgE-Tb, 25 nM FcεRIα-Y131A-AF488, incubated 2 hours at room temperature; read-out: Y131A FRET IC50 range
Sequence (P01854 1-427 limits assumed, stated change not applied): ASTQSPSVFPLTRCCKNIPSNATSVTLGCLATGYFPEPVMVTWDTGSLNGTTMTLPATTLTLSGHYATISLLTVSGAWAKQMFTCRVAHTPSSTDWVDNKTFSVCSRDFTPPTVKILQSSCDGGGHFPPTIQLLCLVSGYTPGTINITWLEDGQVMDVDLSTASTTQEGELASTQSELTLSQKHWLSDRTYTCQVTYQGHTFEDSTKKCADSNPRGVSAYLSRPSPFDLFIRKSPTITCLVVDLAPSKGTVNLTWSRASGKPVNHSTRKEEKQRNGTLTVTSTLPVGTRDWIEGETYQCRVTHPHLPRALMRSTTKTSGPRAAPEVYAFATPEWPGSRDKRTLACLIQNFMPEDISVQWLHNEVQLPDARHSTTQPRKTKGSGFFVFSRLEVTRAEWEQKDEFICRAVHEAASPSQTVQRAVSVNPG
pIC50: −log10 of the molar value.

1) Cc1cc(=O)[nH]c(NC2CCc3sc(NC(=O)C4CC4)c(C(=O)NCC4CC4)c3C2)n1 (stereo not shown): > 6.00

Hello, I would appreciate it if you could give pIC50 for each entry below.
1. O=C(NCC1CC1)c1c(NC(=O)C2CC2)sc2c1CC(C(=O)N1CC(O)C1)CC2 (stereo not shown)
2. O=C(NCC1CC1)c1c(NC(=O)C2CC2)sc2c1CC(C(=O)Nc1cccc3[nH]ncc13)CC2 (stereo not shown)
3. CC(C)(O)CNS(=O)(=O)c1c(NC(=O)C2CC2)sc2c1CCCC2
4. CC(C)CNS(=O)(=O)c1c(NC(=O)C2CC2)sc2c1CCCC2
5. O=C(NCC1CC1)c1c(NC(=O)C2CC2)sc2c1CC(Nc1noc(=O)[nH]1)CC2 (stereo not shown)

4.30 to 5.00
> 6.00
5.00 to 6.00
> 6.00
> 6.00

Quick one: give me pIC50 for each item below, same order please.
1. Cc1ccc(NC2=NS(=O)(=O)N=C2NC2CCc3sc(NC(=O)C4CC4)c(C(=O)NCC4CC4)c3C2)cc1 (stereo not shown)
2. COC(=O)CN1CCc2sc(NC(=O)C3CC3)c(C(=O)NCC3CC3)c2C1
3. CCNc1nnc(C)n1C1CCc2sc(NC(=O)C3CC3)c(C(=O)NCC3CC3)c2C1 (stereo not shown)
4. O=C1CC(c2cccc(NC(=O)C3CCc4sc(NC(=O)C5CC5)c(C(=O)NCC5CC5)c4C3)c2)CN1 (stereo not shown)

1: > 6.00; 2: 4.30 to 5.00; 3: > 6.00; 4: > 6.00

The measurements presented in this section are drawn from patent US12018021B2.
